# Test system: PXR homodimer (NR concentration 270 nM)
# assay-comment: PBM binding z-score (relative to random genomic background probes); higher = stronger binding; sequences stand for … in GC…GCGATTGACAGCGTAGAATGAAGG
Listing: PBM binding z-score of selected sequences

Observe how each entry below is paired with its result.
seq-text | reported-value
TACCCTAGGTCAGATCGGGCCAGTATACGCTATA | -0.0848
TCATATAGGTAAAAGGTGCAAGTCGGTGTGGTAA | 0.487
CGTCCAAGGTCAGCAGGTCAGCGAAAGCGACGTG | 0.421
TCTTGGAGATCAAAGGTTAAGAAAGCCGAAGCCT | -0.521

The reported value for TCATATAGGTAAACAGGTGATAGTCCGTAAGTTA in terms of PBM binding z-score is 0.241
